Molecular target: human CD33 variant Y49C (human, UniProt P20138 18-364)
Sequence (P20138 18-364 Y49C limits assumed): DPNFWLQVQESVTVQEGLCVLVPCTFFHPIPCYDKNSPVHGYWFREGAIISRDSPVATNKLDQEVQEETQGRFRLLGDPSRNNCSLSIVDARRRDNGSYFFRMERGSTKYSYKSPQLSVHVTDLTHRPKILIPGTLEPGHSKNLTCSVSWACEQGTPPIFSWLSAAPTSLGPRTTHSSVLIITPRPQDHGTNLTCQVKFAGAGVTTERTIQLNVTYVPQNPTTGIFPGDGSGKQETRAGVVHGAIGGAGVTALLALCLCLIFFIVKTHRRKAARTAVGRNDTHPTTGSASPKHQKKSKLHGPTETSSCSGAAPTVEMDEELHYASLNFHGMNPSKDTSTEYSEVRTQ
Test: flow cytometry, IgG on cells expressing the mutant
measuredQuantity: Mean % WT Binding

{"binder": "Refmab #1 (antibody, human IgG1, V domains shown, Tested in IgG format; human IgG1 (Absolute Antibody hP67.6, Cat. No. Ab00283-10.0); also called hP67.6) VH: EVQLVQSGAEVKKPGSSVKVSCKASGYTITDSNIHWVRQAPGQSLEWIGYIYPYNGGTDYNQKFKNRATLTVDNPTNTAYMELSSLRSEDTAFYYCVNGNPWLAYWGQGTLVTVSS VL: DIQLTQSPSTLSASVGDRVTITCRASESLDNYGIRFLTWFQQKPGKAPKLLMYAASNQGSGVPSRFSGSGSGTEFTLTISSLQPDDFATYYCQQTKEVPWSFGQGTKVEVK", "Mean % WT Binding": "67.2 % of WT"}
{"binder": "Refmab #2 (antibody, human IgG1, V domains shown, Tested in IgG format; human IgG1 Fc silent (PG-LALA)) VH: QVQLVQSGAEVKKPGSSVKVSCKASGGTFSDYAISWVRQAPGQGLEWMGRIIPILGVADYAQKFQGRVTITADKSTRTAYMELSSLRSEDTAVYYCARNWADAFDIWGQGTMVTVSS VL: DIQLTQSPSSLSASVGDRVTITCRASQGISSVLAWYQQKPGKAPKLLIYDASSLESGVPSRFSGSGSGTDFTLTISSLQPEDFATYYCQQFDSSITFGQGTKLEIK", "Mean % WT Binding": "3.2 % of WT"}

Please look at the following binder next.
What Mean % WT Binding value was documented for this binder, Refmab #3 (antibody, human IgG1, V domains shown, Tested in IgG format; human IgG1 Fc silent (PG-LALA)) VH: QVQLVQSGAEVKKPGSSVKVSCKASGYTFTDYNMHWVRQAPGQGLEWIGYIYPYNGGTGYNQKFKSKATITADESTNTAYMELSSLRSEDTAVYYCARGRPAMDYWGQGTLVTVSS VL: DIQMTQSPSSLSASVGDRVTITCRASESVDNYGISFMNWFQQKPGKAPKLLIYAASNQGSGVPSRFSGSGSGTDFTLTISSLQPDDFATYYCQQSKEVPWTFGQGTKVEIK ?
59.2 % of WT
